biological target: recombinant human IL-13 (human, UniProt P35225 35-146); assay: cell-based or functional assay
Sequence (P35225 35-146 limits assumed): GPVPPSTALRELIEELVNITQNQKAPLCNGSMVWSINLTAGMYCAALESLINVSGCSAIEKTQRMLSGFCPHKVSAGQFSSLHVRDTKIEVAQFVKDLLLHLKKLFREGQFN
Could you mark each record T if its IC50 CD23 falls strictly under 0.1 nM, and F if it equals or exceeds it?

Prompt: Does the reported IC50 CD23 of BDG38.082 (antibody, V domains shown, IgG1) VH: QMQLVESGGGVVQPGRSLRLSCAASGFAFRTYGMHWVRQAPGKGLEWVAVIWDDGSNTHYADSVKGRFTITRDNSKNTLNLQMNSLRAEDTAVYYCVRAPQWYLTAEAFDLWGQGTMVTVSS VL: SYVLTQPPSVSVAPGETATITCGGNMIGGYLVHWYQQKPGQAPVLVIYDDVDRPDRIPERFSGSNSGNTATLTISRVEAGDEADYYCQVWDHDTNQVVFGGGTKLTVL stay below 0.1 nM?
Completion: T

Prompt: Hello, is IC50 CD23 of the following binder strictly smaller than 0.1 nM? BDG38.135 (antibody, V domains shown) VH: QMQLVESGGGVVQPGQSLRLSCAASGFAFRTYGMHWVRQAPGKGLEWLAVIWYDGSNTHYADSVKGRFTITRDNSKNTLNLQMNSLRAEDTAVYYCVRAPQWYNSAEAFDLWGQGTMVTVSS VL: SYVLTQPPSVSVAPGQTARITCGGNLIGARLVHWYQQKPGQAPVLVVYDDSDRPSHIPERFSGSNSGNTATLTISRVEAGDEADYYCQVWDHSADTMVFGGGTKLTVL
Completion: F

Prompt: In the record for BDG38.078 (antibody, V domains shown, IgG1) VH: QMQLVESGGGVVQPGRSLRLSCAASGFEFRTYGMHWVRQAPGKGLEWLGVIWYDGSNTHYADSVKGRFTITRDNSKNTLNLQMNSLRVEDTAVYYCVRAPQWYLTAEAFDLWGQGTMVTVSS VL: SYILTQPPSVSVAPGETATITCGGNLIGARLVHWYQQKPGQAPVLVIYDDSDRPSRIPERFSGSNIGNTATLTIERVEAGDEADYYCQVWDYYSDHMVFGGGTKLTVL , is IC50 CD23 less than 0.1 nM?
Completion: F

Prompt: Find out if reported IC50 CD23 for BDG38.129 (antibody, V domains shown, IgG1) VH: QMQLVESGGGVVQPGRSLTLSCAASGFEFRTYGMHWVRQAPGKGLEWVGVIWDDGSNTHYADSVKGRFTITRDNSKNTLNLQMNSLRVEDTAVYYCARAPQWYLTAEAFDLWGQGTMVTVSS VL: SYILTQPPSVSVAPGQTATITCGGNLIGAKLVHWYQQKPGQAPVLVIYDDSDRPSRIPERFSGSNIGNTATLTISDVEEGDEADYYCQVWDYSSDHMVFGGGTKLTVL is less than 0.1 nM
Completion: T

Prompt: In plain terms, does BDG38.140 (antibody, V domains shown, IgG1) VH: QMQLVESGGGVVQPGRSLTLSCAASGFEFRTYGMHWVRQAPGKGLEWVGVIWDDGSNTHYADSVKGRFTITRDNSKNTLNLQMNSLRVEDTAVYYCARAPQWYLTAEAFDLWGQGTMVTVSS VL: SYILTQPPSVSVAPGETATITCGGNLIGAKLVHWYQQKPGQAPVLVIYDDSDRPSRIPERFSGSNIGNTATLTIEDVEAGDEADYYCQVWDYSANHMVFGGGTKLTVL come in under 0.1 nM for IC50 CD23?
Completion: F
